- procedure_summary: Inhibition of human intestinal CE-mediated irinotecan hydrolysis
Listed below: Ki values for each entry.
endpoint_name: Ki (µM)

>>> quantitative_readout("O=S(=O)(Nc1ccc2c(c1)Cc1cc(NS(=O)(=O)c3cccc(Cl)c3)ccc1-2)c1cccc(Cl)c1")
0.0528
>>> quantitative_readout("O=S(=O)(Nc1ccc(NS(=O)(=O)c2cc(F)c(F)c(F)c2)cc1)c1cc(F)c(F)c(F)c1")
0.192
>>> quantitative_readout("O=S(=O)(Nc1c(F)c(F)c(NS(=O)(=O)c2ccc(Cl)cc2)c(F)c1F)c1ccc(Cl)cc1")
0.11
>>> quantitative_readout("O=S(=O)(Nc1ccc(NS(=O)(=O)c2cccc(Br)c2)cc1)c1cccc(Br)c1")
0.121
>>> quantitative_readout("O=S(=O)(Nc1ccc(NS(=O)(=O)c2cccc(F)c2)cc1)c1cccc(F)c1")
0.152
>>> quantitative_readout("O=S(=O)(Nc1c(F)c(F)c(NS(=O)(=O)c2ccc(Br)cc2)c(F)c1F)c1ccc(Br)cc1")
0.028
>>> quantitative_readout("O=S(=O)(Nc1ccc2c(c1)Cc1cc(NS(=O)(=O)c3ccccc3)ccc1-2)c1ccccc1")
0.0847
>>> quantitative_readout("O=S(=O)(Nc1ccc2c(c1)Cc1cc(NS(=O)(=O)c3cc(F)c(F)c(F)c3)ccc1-2)c1cc(F)c(F)c(F)c1")
0.0581

###

- system_name: Cholinesterase (Homo sapiens) (UniProt P06276)
- Sequence (P06276 whole entry): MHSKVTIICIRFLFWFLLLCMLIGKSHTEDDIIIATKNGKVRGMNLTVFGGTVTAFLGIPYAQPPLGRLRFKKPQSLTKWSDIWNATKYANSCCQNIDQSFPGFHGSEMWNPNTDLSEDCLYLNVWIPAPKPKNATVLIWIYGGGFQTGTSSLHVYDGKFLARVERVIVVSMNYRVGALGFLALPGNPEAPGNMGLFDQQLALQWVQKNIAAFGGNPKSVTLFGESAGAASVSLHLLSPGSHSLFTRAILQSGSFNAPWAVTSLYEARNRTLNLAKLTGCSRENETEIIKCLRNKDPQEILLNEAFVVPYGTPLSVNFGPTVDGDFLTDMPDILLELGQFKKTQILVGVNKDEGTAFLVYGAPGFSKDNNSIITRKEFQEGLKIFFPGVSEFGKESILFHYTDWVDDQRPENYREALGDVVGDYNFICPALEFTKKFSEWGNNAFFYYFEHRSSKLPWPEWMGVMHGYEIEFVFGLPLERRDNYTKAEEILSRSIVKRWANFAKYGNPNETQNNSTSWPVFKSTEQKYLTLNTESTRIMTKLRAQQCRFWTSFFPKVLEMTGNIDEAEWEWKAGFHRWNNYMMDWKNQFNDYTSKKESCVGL
- procedure_summary: Inhibition of human BchE using butyrylthiocholine as substrate by spectrophotometric multiwell plate assay
The source made the active and inactive calls. The rule behind the calls is not given here.
endpoint_name: Activity

>>> result("O=S(=O)(Nc1c(F)c(F)c(NS(=O)(=O)c2ccc(Cl)cc2)c(F)c1F)c1ccc(Cl)cc1")
"inactive"
>>> result("Cc1ccc(S(=O)(=O)Nc2ccc(NS(=O)(=O)c3ccc(Cl)cc3)cc2)cc1")
"inactive"
>>> result("O=C(O)c1ccc(S(=O)(=O)Nc2ccc(NS(=O)(=O)c3ccc(F)cc3)cc2)cc1")
"inactive"
>>> result("O=S(=O)(Nc1ccc(NS(=O)(=O)c2cc(F)cc(F)c2)cc1)c1cc(F)cc(F)c1")
"inactive"
>>> result("O=S(=O)(Nc1cc(Cl)c(NS(=O)(=O)c2ccc(Cl)cc2)cc1Cl)c1ccc(Cl)cc1")
"inactive"
>>> result("Cc1c(C)c(NS(=O)(=O)c2ccc(Br)cc2)c(C)c(C)c1NS(=O)(=O)c1ccc(Br)cc1")
"inactive"
>>> result("O=S(=O)(Nc1ccc(NS(=O)(=O)c2ccc3ccccc3c2)cc1)c1ccc2ccccc2c1")
"inactive"
>>> result("Cc1c(C)c(NS(=O)(=O)c2ccc(F)cc2)c(C)c(C)c1NS(=O)(=O)c1ccc(F)cc1")
"inactive"
>>> result("Cc1c(C)c(NS(=O)(=O)c2cc(Cl)cc(Cl)c2)c(C)c(C)c1NS(=O)(=O)c1cc(Cl)cc(Cl)c1")
"inactive"

###

Listed below: pKi values for each entry.
- system_name: Liver carboxylesterase 1 (Homo sapiens)
- Sequence (P23141 whole entry): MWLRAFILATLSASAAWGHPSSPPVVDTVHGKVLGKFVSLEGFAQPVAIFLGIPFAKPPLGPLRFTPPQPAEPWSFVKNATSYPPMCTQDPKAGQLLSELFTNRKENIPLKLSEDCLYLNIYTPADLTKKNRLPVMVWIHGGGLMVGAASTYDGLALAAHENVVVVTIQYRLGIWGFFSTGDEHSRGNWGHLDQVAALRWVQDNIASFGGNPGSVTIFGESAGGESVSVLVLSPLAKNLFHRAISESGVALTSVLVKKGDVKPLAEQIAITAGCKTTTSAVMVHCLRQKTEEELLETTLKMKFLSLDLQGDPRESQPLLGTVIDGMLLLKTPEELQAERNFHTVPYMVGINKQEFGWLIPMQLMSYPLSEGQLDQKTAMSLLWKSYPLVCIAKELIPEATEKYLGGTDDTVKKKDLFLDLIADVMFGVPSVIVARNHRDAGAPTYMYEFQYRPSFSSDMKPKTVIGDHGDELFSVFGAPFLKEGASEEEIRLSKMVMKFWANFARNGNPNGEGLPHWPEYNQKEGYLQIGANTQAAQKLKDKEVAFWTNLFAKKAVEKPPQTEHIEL
pKi: −log10 of the molar value.
endpoint_name: pKi

>>> result("O=S(=O)(Nc1cc(Cl)c(NS(=O)(=O)c2ccc(Cl)cc2)cc1Cl)c1ccc(Cl)cc1")
"< 4.00"
>>> result("O=S(=O)(Nc1ccc(NS(=O)(=O)c2c(F)cccc2F)cc1)c1c(F)cccc1F")
"< 4.00"
>>> result("O=S(=O)(Nc1ccc2c(c1)Cc1cc(NS(=O)(=O)c3ccc(Cl)cc3)ccc1-2)c1ccc(Cl)cc1")
"< 4.00"
>>> result("O=S(=O)(Nc1ccc(NS(=O)(=O)c2ccc(F)cc2)cc1)c1ccc(F)cc1")
"< 4.00"
>>> result("CNC(=O)c1ccc(S(=O)(=O)Nc2ccc(NS(=O)(=O)c3ccc(F)cc3)cc2)cc1")
"< 4.00"
>>> result("O=S(=O)(Nc1ccc(NS(=O)(=O)c2ccccc2)c(Cl)c1)c1ccccc1")
"< 4.00"
>>> result("Cc1ccc(S(=O)(=O)Nc2ccc(NS(=O)(=O)c3ccc(F)c(F)c3)cc2)cc1")
"< 4.00"
>>> result("COc1ccc(S(=O)(=O)Nc2ccc(NS(=O)(=O)c3ccc(F)cc3)cc2)cc1")
"< 4.00"
>>> result("Cc1c(C)c(NS(=O)(=O)c2cc(Cl)cc(Cl)c2)c(C)c(C)c1NS(=O)(=O)c1cc(Cl)cc(Cl)c1")
"< 4.00"
>>> result("O=S(=O)(Nc1ccc2c(c1)Cc1cc(NS(=O)(=O)c3cc(F)c(F)c(F)c3)ccc1-2)c1cc(F)c(F)c(F)c1")
"< 4.00"
>>> result("O=S(=O)(Nc1c(F)c(F)c(NS(=O)(=O)c2ccc(F)cc2)c(F)c1F)c1ccc(F)cc1")
"< 4.00"
>>> result("Cc1ccc(S(=O)(=O)Nc2ccc(NS(=O)(=O)c3ccc(Cl)cc3)cc2)cc1")
"< 4.00"
>>> result("O=S(=O)(Nc1cc(Br)c(NS(=O)(=O)c2ccc(Cl)cc2)cc1Br)c1ccc(Cl)cc1")
"< 4.00"
>>> result("Cc1c(C)c(NS(=O)(=O)c2cccc(Cl)c2)c(C)c(C)c1NS(=O)(=O)c1cccc(Cl)c1")
"< 4.00"
>>> result("O=S(=O)(Nc1ccc(NS(=O)(=O)c2ccc(F)c(F)c2)cc1)c1ccccc1")
"< 4.00"
